Values compiled from PubChem BioAssay (NCI).

# Test system: MOLT-4 leukemia
# EXPERIMENT_NOTES: NCI tumour cell line growth inhibition, 48 h
Can you tell me TGI for the items I'm about to list?

[Q] Please provide the recorded TGI for CCOC(=O)Nc1sc2c(c1C#N)CC(C)CC2 (stereo unspecified) , tested on MOLT-4 leukemia.
[A] > 100 µM

[Q] `O/N=C1\CC2(N3CCOCC3)CCC1(c1ccccc1)CC2` , same question.
[A] > 100 µM

[Q] `Clc1cc2ccccc2c2ccccc12` , same question.
[A] > 100 µM

[Q] C1OC1CN1CCN(CC2CO2)CC1 (stereo unspecified) , same question.
[A] > 62.4 µM

[Q] `O=C(O)[C@@H]1OCCOCCO[C@@H](C(=O)O)[C@H](C(=O)O)OCCOCCO[C@H]1C(=O)O` , same question.
[A] > 100 µM

[Q] `CC(C)=NNc1snnc1C(N)=O` , same question.
[A] > 100 µM

[Q] CC1(C)CCCC2(C)C3C(O)CC2(C)C(O)C31 (stereo unspecified) , same question.
[A] > 100 µM

[Q] `Cn1nc2ccc([N+](=O)[O-])cc2[n+]1[O-]` , same question.
[A] > 100 µM

[Q] `COc1cc2oc(=O)cc(C)c2c(OC)c1O` , same question.
[A] > 100 µM

[Q] Cc1c(O)c(OC2OC(CO)C(O)C(O)C2O)cc2c1CC[C@@H]1C2(C)C(=O)C[C@]2(C)[C@@H]([C@@](C)(O)C3CCC(C)(C)O3)[C@H](O)C[C@@]12C (stereo partly specified) , same question.
[A] > 100 µM

[Q] `Cc1ccc(/C=C/C(=N/NC(=O)N/N=C(/C=C/c2ccc(C)cc2)C(C)C)C(C)C)cc1` , same question.
[A] > 10 µM

[Q] CC(=O)Nc1ccc2c3c(cc(O)c2c1)N(C(=O)CCCCC(=O)N1CC(CCl)c2c1cc(O)c1cc(NC(C)=O)ccc21)CC3CCl (stereo unspecified) , same question.
[A] 0.0176 µM

[Q] `COc1ccc2c(c1)c1c(n2CCN2CCOCC2)-c2cccc(OC)c2CC1` , same question.
[A] 76.7 µM

[Q] `O=C(Nc1cccc(-n2cc(-c3ccncc3)c(-c3ccc(O)c(Cl)c3)n2)c1)c1ccc2c(c1)OCCO2` , same question.
[A] > 100 µM

[Q] `CCOC(=O)C(=O)Nc1cc(Cl)c(Cl)cc1Cl` , same question.
[A] > 100 µM

[Q] `CC(C)(C)c1cc(C(=O)Nc2ccc(C(=O)NCCN)cc2)cc(C(C)(C)C)c1` , same question.
[A] 7.3 µM

[Q] Cc1ccc(S(=O)(=O)N/N=C(\c2nc3ccc([N+](=O)[O-])cc3[nH]c2=O)C(O)c2ccc([N+](=O)[O-])cc2)cc1 (stereo unspecified) , same question.
[A] > 100 µM

[Q] COC(=O)C1CCC(=O)N1CN(C(C)=O)c1cc(OC)ccc1OC (stereo unspecified) , same question.
[A] > 100 µM

[Q] CC(C)c1ccc(C2NC(=S)NC3=C2c2ccccc2C3=O)cc1 (stereo unspecified) , same question.
[A] > 65 µM

[Q] O=c1[nH]c2cc([N+](=O)[O-])ccc2nc1/C(=N/Nc1ccccc1)C(O)c1ccco1 (stereo unspecified) , same question.
[A] > 100 µM

[Q] C[N+](C)(C)CC1CCC(C[N+](C)(C)C)C1=O (stereo unspecified) , same question.
[A] 0.801 µM
